Tested on: HCT116 human colorectal carcinoma cells
protocol notes: MTT viability assay, HCT116
Type: cell-based
condition set: HCT116, 72 h exposure, mean ± SD

{"columns": ["compound", "IC50"],
 "data": [
  ["CS(C)=O.Cc1c(C)c(C)[c-](-c2ccc(O)cc2)c1C.[Cl][Ir+][Cl] [Complex 3]", "> 100 µM"],
  ["CC1=C(C)[C](c2ccc(O)cc2)([Ir]([Cl])[Cl])C(C)=C1C.CC1=C(C)[C](c2ccc(O)cc2)([Ir]([Cl])[Cl])C(C)=C1C [Complex 1e]", "80 µM"],
  ["CCC[c-]1c(C)c(C)c(C)c1C.[Cl-].[Ir+3].[c-]1ccccc1-c1ccccn1 [Complex 2c]", "8 µM"],
  ["N.N.[Cl][Pt][Cl] [Cisplatin, cisplatin, reference compound]", "1.5 µM"],
  ["Cc1[cH-]c(C)c(C)c1C.Cc1[cH-]c(C)c(C)c1C.[Cl-].[Cl-].[Cl-].[Cl-].[Ir+3].[Ir+3] [Complex 1b]", "> 50 µM"],
  ["CCC[c-]1c(C)c(C)c(C)c1C.CCC[c-]1c(C)c(C)c(C)c1C.[Cl-].[Cl-].[Cl-].[Cl-].[Ir+3].[Ir+3] [Complex 1c]", "30 µM"],
  ["Cc1c(C)c(C)[c-](-c2ccc(F)cc2)c1C.[Cl-].[Ir+3].[c-]1ccccc1-c1ccccn1 [Complex 2d]", "1.3 µM"],
  ["CC1=C(C)[C](c2ccc(F)cc2)([Ir]([Cl])[Cl])C(C)=C1C.CC1=C(C)[C](c2ccc(F)cc2)([Ir]([Cl])[Cl])C(C)=C1C [Complex 1d]", "8.1 µM"]
]}
